- Test system: COLO-205 (Colorectal Carcinoma)
- test_protocol: Bliss excess, mean over the matrix (fraction); higher = more synergy
recorded_metric: Bliss excess
Please respond with just the number, no unit label.

Returns the measured Bliss excess for the input molecule. Input: CN(CCO)CC[C@H](CSc1ccccc1)Nc1ccc(S(=O)(=O)NC(=O)c2ccc(N3CCC([C@@H](O)c4ccccc4-c4ccc(Cl)cc4)CC3)cc2)cc1S(=O)(=O)C(F)(F)F [AZD4320] + Cn1cnc2c(F)c(Nc3ccc(Br)cc3Cl)c(C(=O)NOCCO)cc21 [Selumetinib] (first compound max 1 µM, 7x7, partner max 3 µM)
0.026

What do you get for COc1nnc2ccc(N3CCC(c4ccc(OCCN5CCN(C)C(=O)[C@H]5C)cc4)CC3)nn12 [AZD5153] + Cn1cnc2c(F)c(Nc3ccc(Br)cc3Cl)c(C(=O)NOCCO)cc21 [Selumetinib] (first compound max 1 µM, 7x7, partner max 10 µM) ?
0.0422

What do you get for CC(=O)c1c(C)c2cnc(Nc3ccc(N4CCNCC4)cn3)nc2n(C2CCCC2)c1=O [Palbociclib] + Cc1c2c(nn1C)CSCc1cc(n(C)n1)CSc1cc(c3ccccc3c1)OCCCc1c(C(=O)O)n(C)c3c-2c(Cl)ccc13 [AZD5991] (first compound max 10 µM, 7x7, partner max 1 µM) ?
-0.0487

What do you get for CC(=O)c1c(C)c2cnc(Nc3ccc(N4CCNCC4)cn3)nc2n(C2CCCC2)c1=O [Palbociclib] + CC1(C)CCC(CN2CCN(c3ccc(C(=O)NS(=O)(=O)c4ccc(NCC5CCOCC5)c([N+](=O)[O-])c4)c(Oc4cnc5[nH]ccc5c4)c3)CC2)=C(c2ccc(Cl)cc2)C1 [Venetoclax] (first compound max 10 µM, 7x7, partner max 1 µM) ?
-0.0065

What do you get for Cc1nc(Nc2ncc(C(=O)Nc3c(C)cccc3Cl)s2)cc(N2CCN(CCO)CC2)n1 [Dasatinib] + CC(=O)Nc1cccc(-n2c(=O)n(C3CC3)c(=O)c3c(Nc4ccc(I)cc4F)n(C)c(=O)c(C)c32)c1 [Trametinib] (first compound max 2 µM, 7x7, partner max 1 µM) ?
-0.128

What do you get for Cc1c2c(nn1C)CSCc1cc(n(C)n1)CSc1cc(c3ccccc3c1)OCCCc1c(C(=O)O)n(C)c3c-2c(Cl)ccc13 [AZD5991] + Cc1cc2ncnn2cc1Nc1ncc2c(n1)n(C1CCOCC1)c(=O)n2C [AZD7648] (first compound max 1 µM, 7x7, partner max 10 µM) ?
-0.0604

What do you get for COc1cccc(OCCCN)c1-c1cc(Nc2cnc(C#N)cn2)n[nH]1 [Prexasertib] + O=C(c1cc(Cc2n[nH]c(=O)c3ccccc23)ccc1F)N1CCN(C(=O)C2CC2)CC1 [Olaparib] (first compound max 1 µM, 7x7, partner max 10 µM) ?
-0.0301

What do you get for C[C@@H]1COCCN1c1cc(C2([S@](C)(=N)=O)CC2)nc(-c2ccnc3[nH]ccc23)n1 [AZD6738] + O=C(c1cc(Cc2n[nH]c(=O)c3ccccc23)ccc1F)N1CCN(C(=O)C2CC2)CC1 [Olaparib] (first compound max 10 µM, 7x7, partner max 10 µM) ?
0.0205

What do you get for Cc1c2c(nn1C)CSCc1cc(n(C)n1)CSc1cc(c3ccccc3c1)OCCCc1c(C(=O)O)n(C)c3c-2c(Cl)ccc13 [AZD5991] + C[C@@H]1COCCN1C2=NC(=NC(=C2)C3(CC3)[S@](=N)(=O)C)C4=C5C=CNC5=NC=C4 [AZD6738] (first compound max 1 µM, 7x7, partner max 10 µM) ?
0.0116

What do you get for NC1(C(=O)N[C@@H](CCO)c2ccc(Cl)cc2)CCN(c2ncnc3[nH]ccc23)CC1 [Capivasertib] + CC(C)n1c(=O)n(C)c2cnc3cc(F)c(-c4ccc(OCCCN5CCCCC5)nc4)cc3c21 [AZD1390] (first compound max 10 µM, 7x7, partner max 0.3 µM) ?
-0.0605

What do you get for CN(C)CCCOc1ccc(-c2ccc3ncc4c(c3c2)n(C2CCOCC2)c(=O)n4C)cn1 [AZD0156] + O=C(c1cc(Cc2n[nH]c(=O)c3ccccc23)ccc1F)N1CCN(C(=O)C2CC2)CC1 [Olaparib] (first compound max 3 µM, partner max 3 µM) ?
0.125

What do you get for C=CCn1c(=O)c2cnc(Nc3ccc(N4CCN(C)CC4)cc3)nc2n1-c1cccc(C(C)(C)O)n1 [AZD1775] + O=C(c1cc(Cc2n[nH]c(=O)c3ccccc23)ccc1F)N1CCN(C(=O)C2CC2)CC1 [Olaparib] (first compound max 1 µM, partner max 10 µM) ?
-0.0149

What do you get for CN(CCO)CC[C@H](CSc1ccccc1)Nc1ccc(S(=O)(=O)NC(=O)c2ccc(N3CCC([C@@H](O)c4ccccc4-c4ccc(Cl)cc4)CC3)cc2)cc1S(=O)(=O)C(F)(F)F [AZD4320] + C1CN(CCC1(C(=O)N[C@@H](CCO)C2=CC=C(C=C2)Cl)N)C3=NC=NC4=C3C=CN4 [Capivasertib] (first compound max 1 µM, 7x7, partner max 3 µM) ?
-0.0031

* * *

- System: TE-15 (Esophageal Squamous Cell Carcinoma)
- test_protocol: Bliss excess, mean over the matrix (fraction); higher = more synergy
Please provide measured Bliss excess for the entries that follow.
Please respond with just the number, no unit label.

Returns the measured Bliss excess for the input compound. Input: C=CCn1c(=O)c2cnc(Nc3ccc(N4CCN(C)CC4)cc3)nc2n1-c1cccc(C(C)(C)O)n1 [AZD1775] + CCc1c2c(nc3ccc(O)cc13)-c1cc3c(c(=O)n1C2)COC(=O)[C@]3(O)CC [SN-38] (first compound max 1 µM, partner max 0.3 µM)
-0.0211

What do you get for CC1(C)CCC(CN2CCN(c3ccc(C(=O)NS(=O)(=O)c4ccc(NCC5CCOCC5)c([N+](=O)[O-])c4)c(Oc4cnc5[nH]ccc5c4)c3)CC2)=C(c2ccc(Cl)cc2)C1 [Venetoclax] + Cc1cc2ncnn2cc1Nc1ncc2c(n1)n(C1CCOCC1)c(=O)n2C [AZD7648] (first compound max 1 µM, 7x7, partner max 10 µM) ?
-0.0519

What do you get for CN(CCO)CC[C@H](CSc1ccccc1)Nc1ccc(S(=O)(=O)NC(=O)c2ccc(N3CCC([C@@H](O)c4ccccc4-c4ccc(Cl)cc4)CC3)cc2)cc1S(=O)(=O)C(F)(F)F [AZD4320] + C1CN(CCC1(C(=O)N[C@@H](CCO)C2=CC=C(C=C2)Cl)N)C3=NC=NC4=C3C=CN4 [Capivasertib] (first compound max 1 µM, 7x7, partner max 3 µM) ?
-0.042

* * *

- System: 42-MG-BA (Glioblastoma)
- test_protocol: Bliss excess, mean over the matrix (fraction); higher = more synergy
recorded_metric: Bliss excess

Lookup: Bliss excess / 42-MG-BA (Glioblastoma) / CCN(CCO)CCCOc1ccc2c(Nc3cc(CC(=O)Nc4cccc(F)c4)[nH]n3)ncnc2c1 [AZD2811] + O=C(c1cc(Cc2n[nH]c(=O)c3ccccc23)ccc1F)N1CCN(C(=O)C2CC2)CC1 [Olaparib] (first compound max 1 µM, 7x7, partner max 10 µM)
0.009

What do you get for CC1(C)CCC(CN2CCN(c3ccc(C(=O)NS(=O)(=O)c4ccc(NCC5CCOCC5)c([N+](=O)[O-])c4)c(Oc4cnc5[nH]ccc5c4)c3)CC2)=C(c2ccc(Cl)cc2)C1 [Venetoclax] + Cc1cc2ncnn2cc1Nc1ncc2c(n1)n(C1CCOCC1)c(=O)n2C [AZD7648] (first compound max 1 µM, 7x7, partner max 10 µM) ?
-0.0013

What do you get for COc1nnc2ccc(N3CCC(c4ccc(OCCN5CCN(C)C(=O)[C@H]5C)cc4)CC3)nn12 [AZD5153] + CCN(CCO)CCCOc1ccc2c(Nc3cc(CC(=O)Nc4cccc(F)c4)[nH]n3)ncnc2c1 [AZD2811] (first compound max 1 µM, 7x7, partner max 1 µM) ?
-0.0476

What do you get for COc1nnc2ccc(N3CCC(c4ccc(OCCN5CCN(C)C(=O)[C@H]5C)cc4)CC3)nn12 [AZD5153] + CC1(C)CCC(CN2CCN(c3ccc(C(=O)NS(=O)(=O)c4ccc(NCC5CCOCC5)c([N+](=O)[O-])c4)c(Oc4cnc5[nH]ccc5c4)c3)CC2)=C(c2ccc(Cl)cc2)C1 [Venetoclax] (first compound max 1 µM, 7x7, partner max 1 µM) ?
-0.0391

* * *

- Tested on: AGS (Gastric Carcinoma)
- test_protocol: combination Emax (second highest fraction inhibited in the dose matrix, 72 h); higher = more inhibition; extreme values may be limits of the assay
Please provide measured combination Emax for the entries that follow.
Please respond with just the number, no unit label.

Returns the measured combination Emax for the input molecule. Input: CCN(CCO)CCCOc1ccc2c(Nc3cc(CC(=O)Nc4cccc(F)c4)[nH]n3)ncnc2c1 [AZD2811] + C=CCn1c(=O)c2cnc(Nc3ccc(N4CCN(C)CC4)cc3)nc2n1-c1cccc(C(C)(C)O)n1 [AZD1775] (first compound max 1 µM, partner max 1 µM)
0.6

What do you get for C[C@@H](c1ccc2nccn2c1)n1nnc2ncc(-c3cnn(C)c3)nc21 [Savolitinib] + CC1(C)CCC(CN2CCN(c3ccc(C(=O)NS(=O)(=O)c4ccc(NCC5CCOCC5)c([N+](=O)[O-])c4)c(Oc4cnc5[nH]ccc5c4)c3)CC2)=C(c2ccc(Cl)cc2)C1 [Venetoclax] (first compound max 1 µM, 7x7, partner max 1 µM) ?
0.0926

What do you get for CN(C)CCCOc1ccc(-c2ccc3ncc4c(c3c2)n(C2CCOCC2)c(=O)n4C)cn1 [AZD0156] + CCN(CCO)CCCOc1ccc2c(Nc3cc(CC(=O)Nc4cccc(F)c4)[nH]n3)ncnc2c1 [AZD2811] (first compound max 1 µM, 7x7, partner max 1 µM) ?
0.238

What do you get for CN(CCO)CC[C@H](CSc1ccccc1)Nc1ccc(S(=O)(=O)NC(=O)c2ccc(N3CCC([C@@H](O)c4ccccc4-c4ccc(Cl)cc4)CC3)cc2)cc1S(=O)(=O)C(F)(F)F [AZD4320] + Cn1cnc2c(F)c(Nc3ccc(Br)cc3Cl)c(C(=O)NOCCO)cc21 [Selumetinib] (first compound max 1 µM, 7x7, partner max 3 µM) ?
1
